- Assay Summary: Population PK analysis
- Type: in vivo, human
- Assay Context: human, plasma, oral
Outcome Measure: Vd/F

Input: Please indicate Vd/F recorded for CCN1C(=O)N(c2c(F)c(OC)cc(OC)c2F)Cc2cnc3[nH]c(CN4CCOCC4)cc3c21
Output: 118 L

###

- Assay Summary: Simulated steady-state exposure
- Assay Context: human, plasma, oral, 13.5 mg
Outcome Measure: AUC
Number plus unit, in that order.

Input: Using known records, supply AUC for CCN1C(=O)N(c2c(F)c(OC)cc(OC)c2F)Cc2cnc3[nH]c(CN4CCOCC4)cc3c21
Output: 2.85 µM·h
